Could you please report measured IC50 for the items listed next?
Biological target: Receptor-interacting serine/threonine-protein kinase 1 (Homo sapiens, UniProt Q13546)
Sequence (Q13546 whole entry): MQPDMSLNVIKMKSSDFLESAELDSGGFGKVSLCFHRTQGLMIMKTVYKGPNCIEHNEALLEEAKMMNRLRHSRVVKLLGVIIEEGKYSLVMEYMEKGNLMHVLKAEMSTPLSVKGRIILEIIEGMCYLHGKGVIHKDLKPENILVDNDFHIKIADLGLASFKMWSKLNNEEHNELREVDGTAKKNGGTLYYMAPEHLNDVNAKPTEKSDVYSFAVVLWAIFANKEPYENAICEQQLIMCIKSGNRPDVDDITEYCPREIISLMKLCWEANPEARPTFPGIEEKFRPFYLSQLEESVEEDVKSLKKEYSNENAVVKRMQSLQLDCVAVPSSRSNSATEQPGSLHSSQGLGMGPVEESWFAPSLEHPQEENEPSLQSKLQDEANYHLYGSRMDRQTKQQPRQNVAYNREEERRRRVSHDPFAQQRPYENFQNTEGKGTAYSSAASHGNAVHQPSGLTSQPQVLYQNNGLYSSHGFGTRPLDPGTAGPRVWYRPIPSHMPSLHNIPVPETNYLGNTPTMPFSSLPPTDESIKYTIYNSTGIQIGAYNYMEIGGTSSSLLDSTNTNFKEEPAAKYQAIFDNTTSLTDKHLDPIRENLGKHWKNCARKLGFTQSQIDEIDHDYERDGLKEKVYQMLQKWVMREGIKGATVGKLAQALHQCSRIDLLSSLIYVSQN
One number for each entry, in nM.

COCC#Cc1sc2c(c1C)SC[C@H](NC(=O)c1nnc(Cc3ccccc3)[nH]1)C(=O)N2C = 0.19

// next item, IC50 requested
IN: So what does the record say about IC50 for Cc1c(C#Cc2cncn2C)sc2c1SC[C@H](NC(=O)c1nnc(Cc3ccccc3)[nH]1)C(=O)N2C ?
OUT: 0.3

====

Could you please report measured IC50 for the items listed next?
Target: Receptor-interacting serine/threonine-protein kinase 1 (Homo sapiens, UniProt Q13546)
Sequence (Q13546 whole entry): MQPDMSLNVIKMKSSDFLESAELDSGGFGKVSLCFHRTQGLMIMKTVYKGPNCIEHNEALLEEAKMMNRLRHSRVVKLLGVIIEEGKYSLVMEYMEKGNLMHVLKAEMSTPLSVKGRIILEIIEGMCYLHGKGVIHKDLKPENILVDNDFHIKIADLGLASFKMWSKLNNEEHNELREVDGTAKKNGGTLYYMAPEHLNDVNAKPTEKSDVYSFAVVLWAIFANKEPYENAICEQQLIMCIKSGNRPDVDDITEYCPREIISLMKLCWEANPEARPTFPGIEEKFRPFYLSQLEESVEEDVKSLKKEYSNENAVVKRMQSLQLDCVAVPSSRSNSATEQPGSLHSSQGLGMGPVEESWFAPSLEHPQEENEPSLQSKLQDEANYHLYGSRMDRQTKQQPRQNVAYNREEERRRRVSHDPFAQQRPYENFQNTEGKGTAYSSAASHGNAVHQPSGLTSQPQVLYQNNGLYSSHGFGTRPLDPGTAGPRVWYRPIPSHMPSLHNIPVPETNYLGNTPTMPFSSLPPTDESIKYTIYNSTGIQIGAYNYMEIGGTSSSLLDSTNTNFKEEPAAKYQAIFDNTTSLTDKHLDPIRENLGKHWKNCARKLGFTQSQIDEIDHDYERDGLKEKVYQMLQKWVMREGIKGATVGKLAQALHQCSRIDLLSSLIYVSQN
Answers are plain numbers, in nM.

Guide cases for IC50, answers given:
Cc1cc([C@@](C)(O)C#Cc2ccc3c(c2)N(C)C(=O)[C@@H](NC(=O)c2nnc(Cc4ccccc4)[nH]2)CO3)no1 [US12065447, Compound ZB-R-81] = 0.29
Cc1c(C#Cc2cccnc2)sc2c1SC[C@H](NC(=O)c1nnc(Cc3ccccc3)[nH]1)C(=O)N2C [US12065447, Compound ZB-R-42] = 0.32
Cc1c(C#CC2(O)COC2)sc2c1SC[C@H](NC(=O)c1nnc(Cc3ccccc3)[nH]1)C(=O)N2C [US12065447, Compound ZB-R-87] = 0.2
CN1C(=O)[C@@H](NC(=O)c2n[nH]c(Cc3ccccc3)n2)COc2ccc(C#CC3(O)COC3)cc21 [US12065447, Compound ZB-R-78] = 0.35
COCC#Cc1ccc2c(c1)N(C)C(=O)[C@@H](NC(=O)c1nnc(Cc3ccccc3)[nH]1)CO2 [US12065447, Compound ZB-R-68] = 0.2

Value sought for every listed compound: IC50.
1. CN1C(=O)[C@@H](NC(=O)c2n[nH]c(Cc3ccccc3)n2)COc2ccc(C#Cc3ccccn3)cc21 [US12065447, Compound ZB-R-50]
2. Cc1c(C#CC(C)(C)O)sc2c1SC[C@H](NC(=O)c1nnc(Cc3ccccc3)[nH]1)C(=O)N2C [US12065447, Compound ZB-R-85]
3. Cc1cc([C@](C)(O)C#Cc2sc3c(c2C)SC[C@H](NC(=O)c2nnc(Cc4ccccc4)[nH]2)C(=O)N3C)no1 [US12065447, Compound ZB-R-89]
4. Cc1c(C#Cc2ccncc2)sc2c1SC[C@H](NC(=O)c1nnc(Cc3ccccc3)[nH]1)C(=O)N2C [US12065447, Compound ZB-R-47]
5. CN1C(=O)[C@@H](NC(=O)c2n[nH]c(Cc3ccccc3)n2)COc2ccc(C#Cc3ccncc3)cc21 [US12065447, Compound ZB-R-52]

OUT:
[0.26, 1.09, 1.7, 0.39, 0.42]

====

Could you please report measured pIC50 for the items listed next?
Target: Receptor-interacting serine/threonine-protein kinase 1 (Homo sapiens, UniProt Q13546)
Sequence (Q13546 whole entry): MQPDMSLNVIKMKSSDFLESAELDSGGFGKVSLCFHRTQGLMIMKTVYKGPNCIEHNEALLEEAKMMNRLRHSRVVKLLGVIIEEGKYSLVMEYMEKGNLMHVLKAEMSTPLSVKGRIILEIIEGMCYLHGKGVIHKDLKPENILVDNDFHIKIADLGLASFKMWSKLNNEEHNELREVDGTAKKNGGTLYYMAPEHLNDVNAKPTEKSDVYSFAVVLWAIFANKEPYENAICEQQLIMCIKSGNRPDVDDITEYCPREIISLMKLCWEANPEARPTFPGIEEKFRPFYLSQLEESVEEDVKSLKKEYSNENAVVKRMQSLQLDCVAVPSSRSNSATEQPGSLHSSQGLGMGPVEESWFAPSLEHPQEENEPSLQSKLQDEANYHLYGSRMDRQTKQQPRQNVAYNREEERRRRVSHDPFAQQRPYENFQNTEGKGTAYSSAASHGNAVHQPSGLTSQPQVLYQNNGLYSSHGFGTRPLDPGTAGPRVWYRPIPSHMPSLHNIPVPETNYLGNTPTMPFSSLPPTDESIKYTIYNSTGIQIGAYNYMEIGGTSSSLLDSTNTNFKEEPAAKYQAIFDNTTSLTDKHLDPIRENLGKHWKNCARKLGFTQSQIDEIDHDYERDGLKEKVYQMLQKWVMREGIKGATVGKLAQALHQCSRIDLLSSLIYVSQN
Answers are plain numbers, as −log10 of the molar value.

Guide cases for pIC50, answers given:
CN1C(=O)[C@@H](NC(=O)c2n[nH]c(Cc3ccccc3)n2)COc2ccc(C#Cc3cnn(C)c3)cc21 = 9.96
Cc1c(C#Cc2ccccn2)sc2c1SC[C@H](NC(=O)c1nnc(Cc3ccccc3)[nH]1)C(=O)N2C = 8.27
Cc1c(C#CC2CCOCC2)sc2c1SC[C@H](NC(=O)c1nnc(Cc3ccccc3)[nH]1)C(=O)N2C = 8.39
CN1C(=O)[C@@H](NC(=O)c2n[nH]c(Cc3ccccc3)n2)COc2ccc(C#CC3CCOCC3)cc21 = 10.00
Cc1cc([C@](C)(O)C#Cc2ccc3c(c2)N(C)C(=O)[C@@H](NC(=O)c2nnc(Cc4ccccc4)[nH]2)CO3)no1 = 9.51
CN1C(=O)[C@@H](NC(=O)c2n[nH]c(Cc3ccccc3)n2)COc2ccc(C#CC(C)(C)O)cc21 = 9.27
Cc1c(C#Cc2cnn(C)c2)sc2c1SC[C@H](NC(=O)c1nnc(Cc3ccccc3)[nH]1)C(=O)N2C = 9.77

IN: So what does the record say about pIC50 for Cc1c(C#CC2CC2)sc2c1SC[C@H](NC(=O)c1nnc(Cc3ccccc3)[nH]1)C(=O)N2C ?
OUT: 8.09

====

Could you please report measured pIC50 for the items listed next?
Target: Receptor-interacting serine/threonine-protein kinase 1 (Homo sapiens)
Sequence (Q13546 whole entry): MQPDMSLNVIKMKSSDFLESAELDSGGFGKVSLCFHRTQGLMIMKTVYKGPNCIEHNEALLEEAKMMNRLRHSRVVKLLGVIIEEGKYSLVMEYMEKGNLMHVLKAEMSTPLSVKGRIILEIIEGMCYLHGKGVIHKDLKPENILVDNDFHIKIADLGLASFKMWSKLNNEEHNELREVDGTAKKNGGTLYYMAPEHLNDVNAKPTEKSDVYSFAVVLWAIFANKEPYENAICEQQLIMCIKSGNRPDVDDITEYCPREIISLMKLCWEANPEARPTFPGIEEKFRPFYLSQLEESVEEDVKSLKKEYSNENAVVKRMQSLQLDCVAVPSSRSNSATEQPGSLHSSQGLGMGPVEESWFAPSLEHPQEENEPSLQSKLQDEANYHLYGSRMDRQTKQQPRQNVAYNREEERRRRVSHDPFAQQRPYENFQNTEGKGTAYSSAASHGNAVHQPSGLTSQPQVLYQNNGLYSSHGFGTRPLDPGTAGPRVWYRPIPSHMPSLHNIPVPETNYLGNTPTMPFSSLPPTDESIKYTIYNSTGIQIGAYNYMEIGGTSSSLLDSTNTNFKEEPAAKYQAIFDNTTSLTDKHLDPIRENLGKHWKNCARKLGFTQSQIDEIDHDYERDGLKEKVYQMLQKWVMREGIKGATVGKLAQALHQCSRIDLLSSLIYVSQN
pIC50: −log10 of the molar value.

CN1C(=O)[C@@H](NC(=O)c2ncc(Cc3ccccc3)o2)COc2ccc(C#Cc3cccnc3)cc21 = > 9.30
CN1C(=O)[C@@H](NC(=O)c2cc(Cc3ccccc3)ccn2)COc2ccc(C#Cc3cccnc3)cc21 = > 8.70

// next item, pIC50 requested
IN: So what does the record say about pIC50 for CN1C(=O)[C@@H](NC(=O)c2ncn(Cc3ccccc3)n2)COc2ccc(C#Cc3cccnc3)cc21 ?
OUT: > 9.00

From: BindingDB's records for patent US12065447
